Hey, just so you know, these numbers are from patent US20240217990A1.

# measuredTarget: TLR7 (Homo sapiens, UniProt Q9NYK1)
# Construct: Human peripheral blood mononuclear cells (PBMCs) consist of lymphocytes, monocytes and dendritic cells that express TLR7, TLR8 and TLR9; endogenous in cells
# Sequence (Q9NYK1 27-1049): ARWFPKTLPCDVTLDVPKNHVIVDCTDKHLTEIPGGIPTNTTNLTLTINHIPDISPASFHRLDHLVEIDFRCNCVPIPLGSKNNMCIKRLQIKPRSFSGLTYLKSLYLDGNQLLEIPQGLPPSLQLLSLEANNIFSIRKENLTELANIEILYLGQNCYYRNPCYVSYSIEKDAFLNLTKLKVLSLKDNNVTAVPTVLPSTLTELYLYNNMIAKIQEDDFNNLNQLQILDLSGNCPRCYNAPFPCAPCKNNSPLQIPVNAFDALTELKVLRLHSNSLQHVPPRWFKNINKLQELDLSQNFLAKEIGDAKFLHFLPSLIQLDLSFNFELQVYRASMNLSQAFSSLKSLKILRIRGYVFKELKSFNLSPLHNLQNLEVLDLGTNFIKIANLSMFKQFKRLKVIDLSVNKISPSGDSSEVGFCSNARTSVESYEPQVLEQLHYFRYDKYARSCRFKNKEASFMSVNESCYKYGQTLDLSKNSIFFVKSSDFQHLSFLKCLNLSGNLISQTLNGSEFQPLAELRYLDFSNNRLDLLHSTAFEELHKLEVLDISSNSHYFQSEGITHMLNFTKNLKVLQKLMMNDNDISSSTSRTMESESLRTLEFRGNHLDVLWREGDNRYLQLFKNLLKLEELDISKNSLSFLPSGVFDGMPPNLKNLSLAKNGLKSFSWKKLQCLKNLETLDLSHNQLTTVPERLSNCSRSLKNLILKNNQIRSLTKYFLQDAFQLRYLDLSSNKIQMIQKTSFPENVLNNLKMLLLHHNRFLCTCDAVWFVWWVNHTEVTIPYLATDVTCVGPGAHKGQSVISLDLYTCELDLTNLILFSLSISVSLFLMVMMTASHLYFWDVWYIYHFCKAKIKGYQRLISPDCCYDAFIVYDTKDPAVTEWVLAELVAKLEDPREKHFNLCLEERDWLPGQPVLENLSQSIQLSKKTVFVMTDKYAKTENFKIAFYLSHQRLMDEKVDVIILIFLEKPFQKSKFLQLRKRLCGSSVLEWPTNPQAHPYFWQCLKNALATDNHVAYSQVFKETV
# assayProcedure: TLR7 human PBMC cell-based assay (antagonist, GS-986 stimulated cytokine release)
# measurementSetup: human PBMCs; TLR7 agonist GS-986 400 nM, 6 hours; cytokines (IL-6 and IFNα) in supernatant; read-out: TLR-7 EC50
pEC50: −log10 of the molar value.
reportedMetric: pEC50

Some solved entries appear below for comparison.
- compound: "Cc1cc(-c2[nH]c3cc(C4CCNCC4)sc3c2C(C)C)cn2ncnc12"
  pEC50: 9.22
- compound: "Cc1cc(-c2[nH]c3cc(C(=O)N4CCC(O)CC4)sc3c2C(C)C)cn2ncnc12"
  pEC50: 7.34
- compound: "Cc1cc(-c2[nH]c3cc(C(=O)N(C)CCCN(C)C)sc3c2C(C)C)cn2ncnc12"
  pEC50: 9.00
- compound: "Cc1cc(-c2[nH]c3cc(-c4nc(C5CCN(CC(N)=O)CC5)no4)sc3c2C(C)C)cn2ncnc12"
  pEC50: 8.29
- compound: "Cc1cc(-c2[nH]c3cc(-c4cnn(C5CCN(CC(N)=O)CC5)c4)sc3c2C(C)C)cn2ncnc12"
  pEC50: 7.87
- compound: "Cc1cc(-c2[nH]c3cc(-c4nc5ccc(N6CCNCC6)cc5[nH]4)sc3c2C(C)C)cn2ncnc12"
  pEC50: 8.17

A: Cc1cc(-c2[nH]c3cc(C(=O)N4CCNCC4)sc3c2C(C)C)cn(C)c1=O
B: Cc1cc(-c2[nH]c3cc(C4CC4C(=O)N4CCNCC4)sc3c2C(C)C)cn2ncnc12 (stereo not shown)
C: Cc1cc(-c2[nH]c3cc(C(=O)N4CCCC5NCCC54)sc3c2C(C)C)cc(C)n1 (stereo not shown)
D: Cc1cc(-c2[nH]c3cc(C(=O)N(C)[C@@H]4CNC[C@@H]4F)sc3c2C(C)C)cn2ncnc12
E: Cc1cc(-c2[nH]c3cc(C4CCNCC4(C)C)sc3c2C(C)C)cn2ncnc12 (stereo not shown)
[in] I would appreciate it if you could sort these 5 compounds by pEC50, starting from the smallest number. Please list each label once, in the requested order.
[out] C, A, D, E, B
(C: 7.59, A: 8.01, D: 8.77, E: 9.09, B: 9.36)

P: Cc1cc(-c2[nH]c3cc(C4CC5(CCNCC5)C4)sc3c2C(C)C)cn2ncnc12
Q: Cc1c(-c2[nH]c3cc(-c4nc5ccc(N6CCNCC6)cc5[nH]4)sc3c2C(C)C)cn2ncnc2c1C
R: Cc1cc(-c2[nH]c3cc(C(=O)N(C)[C@H]4CCN(CC(N)=O)C4)sc3c2C(C)C)cn2ncnc12
S: Cc1cc(-c2[nH]c3cc(CN4CCN(C)CC4)sc3c2C(C)C)cn2ncnc12
[in] I would appreciate it if you could sort these 4 compounds by pEC50, starting from the smallest number. Please list each label once, in the requested order.
[out] R, Q, S, P

a: Cc1cc(-c2[nH]c3cc(C(=O)N4CCN[C@@H](C)C4)sc3c2C(C)C)cn2ncnc12
b: Cc1cc(-c2[nH]c3cc(C4CCC(NC5CC6CC5O6)CC4)sc3c2C(C)C)cn2ncnc12 (stereo not shown)
c: Cc1c(-c2[nH]c3cc(CN4CCC(O)(C(F)(F)F)CC4)sc3c2C(C)C)cn2ncnc2c1C
d: CC(C)c1c(-c2ccn3ccnc3c2)[nH]c2cc(C(=O)N3CCNCC3)sc12
e: Cc1cc(-c2[nH]c3cc(C(=O)N(C)[C@@H]4CCN(C5CCC5)C[C@@H]4F)sc3c2C(C)C)cn2ncnc12
[in] Arrange these compounds by their pEC50, starting with the largest number. Please list each label once, in the requested order.
[out] a, b, e, c, d

a: Cc1cc(-c2[nH]c3cc(-c4nnc(N5CCNCC5)s4)sc3c2C(C)C)cn2ncnc12
b: Cc1cc(-c2[nH]c3cc(C(=O)N4CCN(C)CC4)sc3c2C(C)C)cn2ncnc12
[in] Between a and b , which one has the lower reported pEC50 value? // caller expects the label of the chosen entry
[out] b
(b: 8.19, a: 9.40)
